- METHOD DESCRIPTION: Primary qHTS to identify inhibitors of SARS-CoV-2 cell entry (AID 1645846); further: nearly all actives have a fitted effect of over 45% in size
- CONDITION DETAILS: SARS-CoV-2 pseudovirus cell entry assay, luminescence; series mostly up to 57.1 µM
- From the text: Assay Provider: Wei Zheng, Ph.D. National Center for Advancing Translational Sciences, National Institute of Health, Rockville, MD. SARS-CoV-2 spike protein, within the viral envelope, mediates viral attachment and infection of host cells. The SARS-CoV-2 spike protein specifically binds to the host receptor ACE2 (Angiotensin-converting enzyme 2). […] 11. […] Read luminescence signal (Viewlux plate reader, PerkinElmer). […]
Records with an inconclusive call do not appear. Activity calls are given as the source filed them. The call rests on the fitted dose curve.
Outcome (select one): active, inactive

| MOLECULE | GROUP |
| --- | --- |
| O=P1(NCCCl)OCCCN1CCCl (stereo unspecified) | inactive |
| O=C(O)CCCc1ccccc1 | inactive |
| O=C(c1ccccc1)c1ccc2n1CCC2C(=O)O (stereo unspecified) | inactive |
| COc1cc(Nc2c(C#N)cnc3cc(OCCCN4CCN(C)CC4)c(OC)cc23)c(Cl)cc1Cl | active |
| Nc1cccc2c1CN(C1CCC(=O)NC1=O)C2=O (stereo unspecified) | inactive |
| Nc1nc2c(ncn2COCCO)c(=O)[nH]1 | inactive |
| CCn1cc(C(=O)O)c(=O)c2ccc(C)nc21 | inactive |
| CC1(C)S[C@@H]2[C@H](NC(=O)C(C(=O)O)c3ccccc3)C(=O)N2[C@H]1C(=O)O (stereo partly specified) | inactive |

Exercise: # fetch the recorded call for CN(C)/N=N/c1nc[nH]c1C(N)=O here
Key: inactive

Exercise: For CC(C)(O)c1ccccc1CC[C@@H](SCC1(CC(=O)O)CC1)c1cccc(/C=C/c2ccc3ccc(Cl)cc3n2)c1 , what call appears in the results of this test?
Key: inactive

Exercise: Assay outcome for COc1cc2c(cc1OC)[C@@H]1CC(=O)[C@@H](CC(C)C)CN1CC2 : what was it?
Key: inactive

---

- METHOD DESCRIPTION: P-glycoprotein substrates identified in KB-8-5-11 adenocarcinoma cell line, qHTS therapeutic library screen (AID 1346987); further: nearly all actives have a fitted effect of over 65% in size
- CONDITION DETAILS: KB-8-5-11 (P-gp overexpressing) viability, CellTiter-Glo, 72 h; series mostly up to 44.5 µM
Records with an inconclusive call do not appear. The source made the active and inactive calls. Calls come from the whole dose curve; as a rule, active = well fitted inhibition curve with a large enough effect; inconclusive = small, poorly fitted or top-dose-only effect; inactive = flat fitted curve, though single readings scatter.
A correct response names exactly one class from 1 (active), -1 (inactive)

| COMPOUND | GROUP |
| --- | --- |
| CN(C)CCN(C)CCc1ccc(Cl)c(Cl)c1 | -1 |
| CC(C)(N)Cc1ccc(Cl)cc1 | -1 |
| N#CC(C#N)=Cc1ccc(O)c(O)c1 | -1 |

Exercise: # outcome recorded in this test, key = Cc1ccc2c(c1)C1CN(C)CCC1N2 (stereo not drawn)
Key: -1

Exercise: Give the logged outcome of this assay for the following compound: NCCc1cc(O)c(O)cc1O
Key: -1

Exercise: Please let me know the test result on file for CC1NCCOC1c1ccccc1 (stereo not drawn) .
Key: -1

Exercise: Hi, sorry to bother you, what did the test record for CC[C@@H](CO)NC(=O)[C@@H]1C=C2c3cccc4c3c(cn4C)C[C@H]2N(C)C1 ?
Key: 1

Exercise: # lookup: test call for Cc1ccc(S(=O)(=O)N[C@@H](CCCCN)C(=O)CCl)cc1
Key: -1

Exercise: Each compound tested received a call. Report the one for COC[C@@H](NC(C)=O)C(=O)NCc1ccccc1 .
Key: -1

Exercise: Check the results log: what was the call for COC1(CS(=O)c2ccccc2)CCN(CCc2c[nH]c3ccc(F)cc23)CC1 (stereo not drawn) ?
Key: -1

Exercise: Would you mind telling me which call this test gave CCCN1CCC[C@@H]2Cc3nc(N)ncc3C[C@H]21 ?
Key: -1

Exercise: How did this test come out for COc1ccccc1N1CCNCC1 ?
Key: -1

Exercise: So what was the verdict on FC(F)(F)c1cccc(C2=CCN(CCc3ccc4ccccc4c3)CC2)c1 in this test?
Key: -1

---

- System: FAB9
- METHOD DESCRIPTION: qHTS profiling for inhibitors of Plasmodium falciparum proliferation (AID 504749);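 further: 0% = DMSO vehicle and full inhibition = artemisinin control; nearly all actives have a fitted effect of over 60% in size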
- CONDITION DETAILS: P. falciparum in erythrocytes, SYBR Green DNA, 72 h; series mostly up to 28.7 µM
- Method: NIH National Institute of Allergy and Infectious Diseases [NIAID] NIH Chemical Genomics Center [NCGC] […] Because mature erythrocytes lack DNA, only Plasmodium-derived DNA is detected. NCGC Assay Protocol Summary: The SYBR Green viability assay was adapted from a method described previously (Plouffe et al., 2008). […] The following morning, fluorescence intensity at 485(14) nm excitation and 535(25) nm emission wavelengths was measured on an EnVision (Perkin Elmer) plate reader. […]
Records with an inconclusive call do not appear. Activity calls are given as the source filed them. The call rests on the fitted dose curve; in most records, active means well fitted inhibition curve with a large enough effect; inconclusive means small, poorly fitted or top-dose-only effect; inactive means flat fitted curve, though single readings scatter.
MEASUREMENT KIND: outcome

Record excerpt, results attached:
| COMPOUND | outcome |
| --- | --- |
| CN1CCN(C(=O)O[C@H]2c3nccnc3C(=O)N2c2ccc(Cl)cn2)CC1 | inactive |
| CC[N+]1(C)CCCC(OC(=O)C(O)(c2ccccc2)c2ccccc2)C1 (stereo unspecified) | inactive |
| CCN(CC)CCOC(=O)C(O)(c1ccccc1)c1ccccc1 | inactive |
| Oc1ccc(Cl)cc1Cc1ccccc1 | inactive |
| C[C@]12C/C(=C/O)C(=O)C[C@@H]1CC[C@@H]1[C@@H]2CC[C@@]2(C)[C@H]1CC[C@]2(C)O | inactive |
| CC(C)CC(N(C)C)C1(c2ccc(Cl)cc2)CCC1 (stereo unspecified) | inactive |
| CCC(COC(=O)c1cc(OC)c(OC)c(OC)c1)(c1ccccc1)N(C)C (stereo unspecified) | inactive |
| NCC1(CC(=O)O)CCCCC1 | inactive |
| CN1C(=S)CN=C(c2ccccc2)c2cc(Cl)ccc21 | inactive |
| CC(C)=CC1C(C(=O)OCc2cccc(Oc3ccccc3)c2)C1(C)C (stereo unspecified) | inactive |

Exercise: outcome lookup needed for O=P1(NCCCl)OCCCN1CCCl (stereo unspecified) , thanks.
Key: inactive

---

- METHOD DESCRIPTION: qHTS of pediatric cancer cell lines to identify multiple opportunities for drug repurposing: Primary screen for A673 cells (AID 1347092); further: nearly all actives have a fitted effect of over 45% in size; further: potency means the concentration at half of the fitted maximal effect
- CONDITION DETAILS: A673 Ewing sarcoma viability, CellTiter-Glo ATP luminescence, 48 h; series mostly up to 46 µM
Results filed as inconclusive are left out. Active and inactive are the calls of the source. Calls come from the whole dose curve; as a rule, active = well fitted cell-killing curve with a large enough effect; inconclusive = small, poorly fitted or top-dose-only effect; inactive = no such curve, though single readings can be large or run the other way.
MEASUREMENT KIND: Potency

| MOLECULE | MEASUREMENT KIND | ASSAY VALUE |
| --- | --- | --- |
| CCC(COC(=O)c1cc(OC)c(OC)c(OC)c1)(c1ccccc1)N(C)C (centres undefined) | Potency | inactive |
| Cn1cc(C2=C(c3cn(C4CCN(Cc5ccccn5)CC4)c4ccccc34)C(=O)NC2=O)c2ccccc21 | Potency | 3.72 µM (active) |
| CCC1(C2=NCCN2)Cc2ccccc2O1 (centres undefined) | Potency | inactive |
| Cc1cccc(C)c1NC(=O)CN1CCCC1=O | Potency | inactive |

Exercise: Form field: reported Potency of Cc1ccc(-c2nc3ccc(C)cn3c2CC(=O)N(C)C)cc1
Key: inactive

Exercise: Tell me the measured Potency of COC1(CS(=O)c2ccccc2)CCN(CCc2c[nH]c3ccc(F)cc23)CC1 (centres undefined) , please.
Key: inactive

Exercise: # input molecule: CCCN1CCC[C@@H]2Cc3nc(N)ncc3C[C@H]21 ; wanted: its Potency
Key: inactive

Exercise: So what does the record say about Potency for Cc1cc(SCc2sc(-c3ccc(C(F)(F)F)c(F)c3)nc2C)ccc1OCC(=O)O ?
Key: inactive

Exercise: I'd like to know its Potency. The molecule in question is C[C@H]1O[C@@H](O[C@H]2[C@@H](O)C[C@H](O[C@H]3[C@@H](O)C[C@H](O[C@H]4CC[C@@]5(C)[C@H](CC[C@@H]6[C@@H]5CC[C@]5(C)[C@@H](C7=CC(=O)OC7)CC[C@]65O)C4)O[C@@H]3C)O[C@@H]2C)C[C@H](O)[C@@H]1O
Key: 0.0133 µM (active)

---

- System: CAOV3
- METHOD DESCRIPTION: Primary qHTS to identify gynecologic anti-cancer compounds using libraries of approved drugs and bioactive compounds (AID 1345084); further: nearly all actives have a fitted effect of over 55% in size
- CONDITION DETAILS: Gynecologic cancer cell panel viability, ATPlite luminescence, 48 h; series mostly up to 57.5 µM
Records with an inconclusive call do not appear. Activity calls are given as the source filed them. Calls come from the whole dose curve; as a rule, active = well fitted cell-killing curve with a large enough effect; inconclusive = small, poorly fitted or top-dose-only effect, or effect the other way; inactive = flat fitted curve, though single readings scatter.
MEASUREMENT KIND: activity change, negative = cytotoxicity

| COMPOUND | activity change, negative = cytotoxicity |
| --- | --- |
| Oc1cccc2cccnc12 | inactive |
| O=P1(NCCCl)OCCCN1CCCl (configuration not stated) | inactive |
| Cc1ccc(S(=O)(=O)N[C@@H](CCCCN)C(=O)CCl)cc1 | inactive |
| O=c1[nH]c2ccccc2n1CCCN1CCC(n2c(=O)[nH]c3cc(Cl)ccc32)CC1 | inactive |
| O=C(O)c1ccc2[nH]cc(CCCCN3CC=C(c4ccccc4)CC3)c2c1 | inactive |
| CCCN1CCC[C@@H]2Cc3[nH]ncc3C[C@H]21 | inactive |

// below: activity change, negative = cytotoxicity requested for another compound
Exercise: Could you tell me which activity change, negative = cytotoxicity is on file for CC1OC(C)OC(C)O1 (configuration not stated) ?
Key: inactive

These data points were gathered from PubChem BioAssay (NCATS).
